In this section, each of the binders is paired with its reported Top.
- EXPERIMENTAL_SYSTEM: T1, human G-protein-coupled receptor family C group 5 member D (GPRC5D) (human, UniProt Q9NZD1 1-345)
- T1 construct: whole, on cells; also called human GPRC5D protein
- T1 sequence (Q9NZD1 whole entry): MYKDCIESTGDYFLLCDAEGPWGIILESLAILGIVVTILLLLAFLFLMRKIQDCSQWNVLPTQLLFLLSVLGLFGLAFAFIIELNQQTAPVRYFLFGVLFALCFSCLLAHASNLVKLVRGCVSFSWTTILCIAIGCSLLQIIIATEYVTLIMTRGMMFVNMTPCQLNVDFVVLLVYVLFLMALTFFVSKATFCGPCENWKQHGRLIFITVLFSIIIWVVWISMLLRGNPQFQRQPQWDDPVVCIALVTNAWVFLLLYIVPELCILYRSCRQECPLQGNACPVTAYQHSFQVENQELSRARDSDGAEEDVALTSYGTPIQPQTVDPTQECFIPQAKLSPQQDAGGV
- EXPERIMENT_SUMMARY: FACS, CHO-K1/human GPRC5D, hybridoma supernatant
Keep it simple and answer with nothing but the number.

Some entries whose results are on file:
INSERT INTO measurements (binder, quantity_name, value) VALUES
  ('26E1D12 (antibody, V domains shown, murine antibody from hybridoma supernatant) VH: EVQLQQSGPELVKPGASMKISCKASGYSFTGYTMNWVKQSHGKNLEWIGLINPYNGGTNYNQKFKGKATLAVDKSSSTAYMDLLSLTSEDSAVYYCSRWGLRRAMDYWGQGTSVTVSS VL: DIVMTQSQKFMSTSVGDRVSVTCKASQNVGSNVAWYQQKPGQSPKALIYSASYRYSGVPDRFTGSGSGTDFTLTISNVQSEDLAEYFCQQYNNSPWTFGGGTKLEIK', 'Top', 678000),
  ('29A7H11H4C12 (antibody, V domains shown, murine antibody from hybridoma supernatant) VH: EVQLQQSGPELVKPGASMKISCKASGYSFTGYTMHWVKQSHGENLEWIGLINPYNGGTNYNQKFKGKATLTVDKSSSTAYMELLSLTSEDSAVYYCSRWGLRRAMDYWGQGTSVTVSS VL: DIVMTQSQKFMSTSIGDRVSVTCKASQNVGSNVAWYQQKPGQSPKALIYSASYRYSGVPDRFTGNGSGTDFTLTISNVQSEDLAEYFCQQYYNSPWTFGGGTKLEIK', 'Top', '1.46e+06'),
  ('14C2A11C6 (antibody, V domains shown, murine antibody from hybridoma supernatant; also called 14C2A1106) VH: QVHLQQSGAELARPGASVKMSCKASGYTFTTYTMHWVKQRPGQGLEWIGYINPNSAYTNYNQKFKDKATLTADKSSSTAYMQLSSLTSEDSAVYYCARRVLLLRVLDFFDYWGQGTTLTVSS VL: DVQITQSPSYLAASPGETITINCRASKSINKYLTWYQEKPGKTNKLLIYSGSTLQSGIPSRFSGSGSGSDFTLTISSLEPEDFAMYYCQQHNEYPLTFGTGTKLELK', 'Top', 729000),
  ('2D3C12 (antibody, V domains shown, murine antibody from hybridoma supernatant) VH: QVQLQQSGAELVRPGTSVKVSCKASGYAFINYLIEWIKQRPGQGLEWIGMINPGSGGTNYNEKFKDKATLTADKSSSTAYMQLSSLTSDDSAVYFCARNWDVWGQGTTLTVSS VL: DVVMTQSPLSLPVSLGDQASVSCRSSQSLVHSTGNTYLHWYLQKPGQSPKLLIYKVSNRFSGVPDRFSGSGSGTDFTLKISRVEAEDLGVYFCSQSTHVPWTFGGGTKLEIK', 'Top', 835000);

Moving on to another binder below.
*Q* Record request: Top value, item 34D3H1 (antibody, V domains shown, murine antibody from hybridoma supernatant) VH: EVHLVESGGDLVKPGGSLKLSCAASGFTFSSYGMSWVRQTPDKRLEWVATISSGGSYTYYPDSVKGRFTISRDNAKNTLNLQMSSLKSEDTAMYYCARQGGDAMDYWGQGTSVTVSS VL: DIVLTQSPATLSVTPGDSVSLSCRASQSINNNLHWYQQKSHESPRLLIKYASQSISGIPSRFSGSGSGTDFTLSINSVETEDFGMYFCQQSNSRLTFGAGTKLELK
*A* 1.41e+06
